measured_on: NR2F6 (Homo sapiens)
Construct: expressed in transfected cells; also transient transfection
Sequence (P10588 1-404): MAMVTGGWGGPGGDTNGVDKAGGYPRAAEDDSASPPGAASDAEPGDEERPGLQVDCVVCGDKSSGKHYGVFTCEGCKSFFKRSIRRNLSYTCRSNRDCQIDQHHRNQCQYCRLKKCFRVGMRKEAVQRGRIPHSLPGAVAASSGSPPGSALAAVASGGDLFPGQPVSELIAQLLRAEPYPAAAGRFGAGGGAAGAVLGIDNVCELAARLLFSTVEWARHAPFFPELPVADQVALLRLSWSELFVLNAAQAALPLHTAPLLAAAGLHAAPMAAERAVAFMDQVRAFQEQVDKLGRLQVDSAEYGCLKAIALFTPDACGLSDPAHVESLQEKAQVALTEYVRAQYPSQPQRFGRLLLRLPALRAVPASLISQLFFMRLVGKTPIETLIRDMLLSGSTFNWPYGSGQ
assay_remarks: NR2F6 agonist screening, Firefly signal cmpd/DMSO
Format: cell-based
measurement_context: C11 analogs follow set (Tables 2-10), repeat 1
recorded_metric: Firefly, cmpd/DMSO repeat 1

[[record]]
smiles_record = "O=C(Nc1ccccc1C(F)(F)F)c1ccc2oc(=O)c(S(=O)(=O)c3ccc(F)cc3)cc2c1"
recorded_metric = "Firefly, cmpd/DMSO repeat 1"
measured_value = 4.5

[[record]]
smiles_record = "COc1ccc2cc(S(=O)(=O)c3ccc(C)c(C)c3)c(=O)oc2c1"
recorded_metric = "Firefly, cmpd/DMSO repeat 1"
measured_value = 3.2

[[record]]
smiles_record = "O=c1oc2ccc([N+](=O)[O-])cc2cc1S(=O)(=O)c1ccc(Br)cc1"
recorded_metric = "Firefly, cmpd/DMSO repeat 1"
measured_value = 10.0

[[record]]
smiles_record = "COc1ccc(NC(=O)c2ccc3oc(=O)c(S(=O)(=O)c4ccc(C)cc4)cc3c2)cc1OC"
recorded_metric = "Firefly, cmpd/DMSO repeat 1"
measured_value = 9.0


I: O=C(NCCc1ccccc1)c1ccc2oc(=O)c(S(=O)(=O)c3ccc(F)cc3)cc2c1
II: COc1ccc2oc(=O)c(S(=O)(=O)c3ccc(Br)cc3)cc2c1
III: COc1ccc2cc(S(=O)(=O)c3cccc(Cl)c3)c(=O)oc2c1
IV: COc1ccc(NC(=O)c2ccc3oc(=O)c(S(=O)(=O)c4ccc(C)cc4)cc3c2)cc1
query: Rank order required: Firefly, cmpd/DMSO repeat 1, descending. When ranking, write the labels in the order the request describes.
result: IV, I, III, II
(IV: 15.2, I: 5.8, III: 3.0, II: 0.8)
